Measured values drawn from patent US20220332800A1 for this set.

- target_entity: T1, ZIKV-VLP (Native Antigen Inc.) (Zika virus)
- T1 construct: also called Zika VLP; ZVLP
- test_name: BLI binning on ZIKV-VLP; 1st mAb: 289-3

>  <binder>
anti-ZIKV antibody 306-2 (antibody, V domains shown) VH: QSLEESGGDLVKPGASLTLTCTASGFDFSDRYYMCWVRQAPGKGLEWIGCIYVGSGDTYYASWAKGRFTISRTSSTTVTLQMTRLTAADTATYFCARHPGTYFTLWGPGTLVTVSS VL: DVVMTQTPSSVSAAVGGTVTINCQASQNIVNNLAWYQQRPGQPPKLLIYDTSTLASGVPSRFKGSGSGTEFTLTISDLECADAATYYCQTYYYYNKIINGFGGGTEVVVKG

>  <response of 2nd mAb>
0.03

$$$$
>  <binder>
anti-ZIKV antibody 242-3 (antibody, V domains shown, also called clone 242-3) VH: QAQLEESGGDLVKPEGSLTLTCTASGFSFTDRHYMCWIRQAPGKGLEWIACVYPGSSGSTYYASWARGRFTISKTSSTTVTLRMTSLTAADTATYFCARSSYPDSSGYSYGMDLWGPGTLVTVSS VL: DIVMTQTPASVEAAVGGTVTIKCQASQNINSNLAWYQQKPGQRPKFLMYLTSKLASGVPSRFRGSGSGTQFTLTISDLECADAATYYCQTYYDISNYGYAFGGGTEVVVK

>  <response of 2nd mAb>
0.04

$$$$
>  <binder>
anti-ZIKV antibody 11-3 (antibody, V domains shown, also called clone 11-3) VH: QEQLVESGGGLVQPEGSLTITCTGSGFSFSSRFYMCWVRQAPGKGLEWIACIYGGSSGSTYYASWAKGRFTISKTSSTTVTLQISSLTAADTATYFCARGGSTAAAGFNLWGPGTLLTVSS VL: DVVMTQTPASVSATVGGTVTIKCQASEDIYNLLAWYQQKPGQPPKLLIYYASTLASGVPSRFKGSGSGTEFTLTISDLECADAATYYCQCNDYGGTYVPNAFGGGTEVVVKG

>  <response of 2nd mAb>
0.42

$$$$
>  <binder>
anti-ZIKV antibody 78-2 (antibody, V domains shown, also called clone 78-2) VH: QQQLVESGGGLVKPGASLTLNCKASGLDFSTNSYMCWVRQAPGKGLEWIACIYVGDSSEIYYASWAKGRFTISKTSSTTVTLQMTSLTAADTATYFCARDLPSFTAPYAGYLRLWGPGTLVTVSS VL: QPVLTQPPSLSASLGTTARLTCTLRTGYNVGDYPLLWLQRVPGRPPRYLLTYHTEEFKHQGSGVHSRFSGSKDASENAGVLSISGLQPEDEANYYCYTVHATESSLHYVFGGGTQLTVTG

>  <response of 2nd mAb>
0.32

$$$$
